target: full-length BTK C481S enzyme (Homo sapiens (Human), UniProt Q06187, C481S); assay: Biochemical kinase assay BTK C481S (IMAP)
Sequence (Q06187 whole entry C481S): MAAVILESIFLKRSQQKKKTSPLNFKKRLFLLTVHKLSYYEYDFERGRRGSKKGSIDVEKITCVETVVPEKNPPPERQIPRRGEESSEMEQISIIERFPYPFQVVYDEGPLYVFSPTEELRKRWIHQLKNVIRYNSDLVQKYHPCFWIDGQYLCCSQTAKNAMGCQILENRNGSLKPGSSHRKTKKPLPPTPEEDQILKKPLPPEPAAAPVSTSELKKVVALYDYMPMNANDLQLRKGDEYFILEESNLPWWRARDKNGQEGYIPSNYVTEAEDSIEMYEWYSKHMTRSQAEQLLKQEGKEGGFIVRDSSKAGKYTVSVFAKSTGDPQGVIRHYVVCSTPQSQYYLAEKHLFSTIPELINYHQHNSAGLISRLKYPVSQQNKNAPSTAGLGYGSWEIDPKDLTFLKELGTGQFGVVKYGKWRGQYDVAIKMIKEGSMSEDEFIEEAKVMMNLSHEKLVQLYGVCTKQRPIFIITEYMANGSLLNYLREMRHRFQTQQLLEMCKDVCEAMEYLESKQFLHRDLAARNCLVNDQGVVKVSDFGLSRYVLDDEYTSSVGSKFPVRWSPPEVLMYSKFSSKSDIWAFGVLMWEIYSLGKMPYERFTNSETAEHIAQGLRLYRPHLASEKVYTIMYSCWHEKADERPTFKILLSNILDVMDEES
value-type: IC50

Field: example entries. Status: answers known.
Nc1ncc2c3c1c(-c1ccc(C(=O)Nc4cc(C(F)(F)F)ccn4)cc1)nn3[C@@H]1CCC[C@H](C1)C(=O)NCCCCC/C=C/2 = < 5 nM
C[C@@H]1CCn2nc(-c3ccc(C(=O)Nc4cc(C(F)(F)F)ccn4)cc3)c3c(N)ncc(c32)CC=CCCCCC(=O)N1 = 5 to 50 nM
COc1ccc(F)cc1C(=O)NCc1ccc(-c2nc3n4c(cnc(N)c24)/C=C/CCN(C(C)=O)CC(=O)N[C@@H]2CC[C@@H]3C2)cc1 = < 5 nM
Nc1ncc2c3c1c(-c1ccc(C(=O)Nc4cc(C(F)(F)F)ccn4)cc1)nn3[C@@H]1CCC[C@H](C1)C(=O)NCCCCC/C=C/C2 [Example 89a] = 5 to 50 nM
Nc1ncc2c3c1c(-c1ccc(C(=O)Nc4cc(C(F)(F)F)ccn4)cc1)nn3[C@@H]1CN[C@H](C1)C(=O)NCCCCC/C=C/2 = < 5 nM
C[C@@H]1CC(=O)N[C@@H]2CCC[C@H](C2)n2nc(-c3ccc(C(=O)Nc4cc(C#N)ccn4)cc3)c3c(N)ncc(c32)/C=C/CCN1 = < 5 nM

For Nc1ncc2n3c(nc(-c4ccc(C(=O)Nc5cc(C(F)(F)F)ccn5)cc4)c13)[C@@H]1CCC[C@H](C1)NC(=O)CCC/C=C\C2 [Example 133b] , what is its reported IC50?
< 5 nM

For "Nc1ncc2n3c(nc(-c4ccc(C(=O)Nc5cc(C(F)(F)F)ccn5)cc4)c13)[C@@H]1CCC[C@H](C1)NC(=O)CC/C=C/C2" , what is its reported IC50?
5 to 50 nM

For "COc1cc(-c2nn3c4c(cnc(N)c24)/C=C/CCOCCC(=O)N[C@@H]2CCC[C@@H]3C2)ccc1C(=O)Nc1cc(C(F)(F)F)ccn1" , what is its reported IC50?
< 5 nM

For "COc1ccc(F)cc1C(=O)NCc1ccc(-c2nn3c4c(cnc(N)c24)/C=C/CO[C@H](C)C(=O)N[C@@H]2CCC[C@@H]3C2)cc1" , what is its reported IC50?
< 5 nM

For Nc1ncc2c3c1c(-c1ccc(C(=O)Nc4cc(C(F)(F)F)ccn4)cc1)nn3[C@@H]1CCC[C@H](C1)NC(=O)CCCC/C=C\C2 [Example 98b] , what is its reported IC50?
< 5 nM

For "Nc1ncc2c3c1c(-c1ccc(C(=O)Nc4cc(C(F)(F)F)ccn4)cc1)nn3[C@@H]1CCC[C@H](C1)NC(=O)CCCCCC/C=C/2" , what is its reported IC50?
< 5 nM
